From: paper PMC2659760

# target: UniProtKB Q29437
# Sequence (Q29437 17-762): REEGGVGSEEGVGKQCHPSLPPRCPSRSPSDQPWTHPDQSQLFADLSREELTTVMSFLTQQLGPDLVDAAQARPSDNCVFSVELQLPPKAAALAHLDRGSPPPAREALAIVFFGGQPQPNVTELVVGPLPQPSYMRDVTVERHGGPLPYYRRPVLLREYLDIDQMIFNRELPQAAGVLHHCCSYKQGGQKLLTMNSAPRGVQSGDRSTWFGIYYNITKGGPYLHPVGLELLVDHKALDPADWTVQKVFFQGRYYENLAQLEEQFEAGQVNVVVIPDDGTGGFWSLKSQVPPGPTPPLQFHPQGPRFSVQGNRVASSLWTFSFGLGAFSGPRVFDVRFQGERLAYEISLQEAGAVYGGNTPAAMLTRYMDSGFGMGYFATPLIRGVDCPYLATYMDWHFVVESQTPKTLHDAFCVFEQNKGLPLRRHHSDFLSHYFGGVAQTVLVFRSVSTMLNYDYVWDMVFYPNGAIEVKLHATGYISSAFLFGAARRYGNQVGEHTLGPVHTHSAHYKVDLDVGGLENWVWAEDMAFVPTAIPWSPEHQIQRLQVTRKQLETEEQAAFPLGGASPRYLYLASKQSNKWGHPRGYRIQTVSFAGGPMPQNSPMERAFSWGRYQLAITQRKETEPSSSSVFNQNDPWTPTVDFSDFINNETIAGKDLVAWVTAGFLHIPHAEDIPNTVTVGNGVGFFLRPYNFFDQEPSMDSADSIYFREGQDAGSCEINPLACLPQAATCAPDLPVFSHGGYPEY
# assay.comment: Inhibition of BPAO evaluated with the new fluorometric assay
# Format: biochemical, bovine
# test.context: read-out: 10 min IC50, 30 °C
pIC50: −log10 of the molar value.
measurement.name: pIC50

molecule | target | data.value
C=C=CCN [compound 29, 1-Amino-2,3-butadiene] | UniProtKB Q29437 | 6.90
